# Protocol: Steady-state pharmacokinetic parameters for Clonidine evaluated following transdermal administration of 0.1, 0,2 and 0.3 mg doses of Clonidine to the upper outer arm for 7 days.
# Settings: human, in vivo, topical or ocular
Readout Name: bioavailability at 168 h (%)
Kindly provide the numeric value in % only, without the unit symbol.

Ask: Reported bioavailability at 168 h, molecule Clc1cccc(Cl)c1N=C1NCCN1 : ____
Result: 60

----------
# Protocol: Steady-state pharmacokinetic parameters for Clonidine evaluated following transdermal administration of 0.1, 0,2 and 0.3 mg doses of Clonidine to the upper outer arm for 7 days.
# Settings: human, in vivo, topical or ocular
Readout Name: half-life at 168 h (h)
Give your result in h as a bare value.

Ask: Returns the measured half-life at 168 h for the input compound. Input: Clc1cccc(Cl)c1N=C1NCCN1
Result: 24

----------
# Protocol: Pharmacokinetic parameters for Clonidine evaluated following oral or intravenous administration of Clonidine to subjects.
# Settings: human, in vivo
Readout Name: Vd (L)
Quick note: give the figure in L, leave out the unit.

Ask: Any idea what Vd was measured for Clc1cccc(Cl)c1N=C1NCCN1 ?
Result: 197

----------
# Protocol: Pharmacokinetic parameters for Clonidine evaluated following oral or intravenous administration of Clonidine to subjects.
# Settings: human, in vivo
Readout Name: CL renal (mL/min)
Field: numeric (mL/min). Do not append units.

Ask: Returns the measured CL renal for the input molecule. Input: Clc1cccc(Cl)c1N=C1NCCN1 [CLONIDINE]
Result: 102

----------
# Protocol: Pharmacokinetic parameters for Clonidine evaluated following oral or intravenous administration of Clonidine to subjects.
# Settings: human, in vivo
Readout Name: half-life

Ask: Fill in the blank: the reported half-life of Clc1cccc(Cl)c1N=C1NCCN1 is ____.
Result: 12 to 16 h
